Test system: Rabbit Reticulocyte Lysate
Test: In vitro translation screen, firefly Luciferase modRNA (luciferase assay, relative light units)
Type: biochemical
Settings: Table 20; 250 ng modRNA, 45 min, 30° C.
MEASUREMENT TYPE: Luc Expression (RLUs)
Answers are plain numbers, in RLUs.

CC(=O)Nc1ccn([C@@H]2O[C@H](COP(=O)(O)OP(=O)(O)OP(=O)(O)O)C(O)C2O)c(=O)n1 (stereo in doubt)	167600

Please give Luc Expression (RLUs) for each item listed below.
1. Nc1ncc2ncn([C@@H]3O[C@H](COP(=O)(O)OP(=O)(O)OP(=O)(O)O)C(O)C3O)c2n1 (stereo in doubt) [03601012004 (382), 2-Aminopurine-riboside TP]
2. Cn1cc([C@@H]2O[C@H](COP(O)(=S)OP(=O)(O)OP(=O)(O)O)C(O)C2O)c(=O)[nH]c1=O (stereo in doubt)
3. COc1cn([C@@H]2O[C@H](COP(=O)(O)OP(=O)(O)OP(=O)(O)O)C(O)C2O)c(=O)[nH]c1=O (stereo in doubt)

// result
107000
1201
306600

###

Molecular target: T7 RNA polymerase (Escherichia phage T7, UniProt P00573)
Sequence (P00573 whole entry): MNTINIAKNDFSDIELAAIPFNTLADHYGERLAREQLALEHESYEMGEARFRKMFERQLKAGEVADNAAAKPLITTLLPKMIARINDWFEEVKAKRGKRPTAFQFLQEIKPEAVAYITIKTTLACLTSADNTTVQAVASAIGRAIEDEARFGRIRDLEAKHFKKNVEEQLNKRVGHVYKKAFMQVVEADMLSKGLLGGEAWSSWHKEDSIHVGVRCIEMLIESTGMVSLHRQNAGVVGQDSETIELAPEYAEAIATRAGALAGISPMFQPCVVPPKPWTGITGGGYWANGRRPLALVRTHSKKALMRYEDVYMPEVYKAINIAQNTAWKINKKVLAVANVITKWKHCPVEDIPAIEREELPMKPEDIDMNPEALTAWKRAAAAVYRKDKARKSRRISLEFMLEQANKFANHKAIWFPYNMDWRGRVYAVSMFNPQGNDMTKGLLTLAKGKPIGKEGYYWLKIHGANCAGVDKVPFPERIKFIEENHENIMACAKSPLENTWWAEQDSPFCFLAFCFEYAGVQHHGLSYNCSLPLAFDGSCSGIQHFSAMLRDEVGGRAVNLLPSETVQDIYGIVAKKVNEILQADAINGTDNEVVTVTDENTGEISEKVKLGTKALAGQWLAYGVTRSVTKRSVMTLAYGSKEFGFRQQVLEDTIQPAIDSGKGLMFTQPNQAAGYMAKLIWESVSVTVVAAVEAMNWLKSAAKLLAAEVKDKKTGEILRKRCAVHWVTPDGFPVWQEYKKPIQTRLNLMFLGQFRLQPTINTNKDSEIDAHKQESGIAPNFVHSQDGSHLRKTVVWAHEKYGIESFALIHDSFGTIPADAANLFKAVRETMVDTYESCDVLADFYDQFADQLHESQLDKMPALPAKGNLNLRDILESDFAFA
Assay: In vitro transcription yields of modified mRNA
Assay type: biochemical
Details: Luciferase mRNA made with the modified NTP(s)
MEASUREMENT TYPE: Luc In Vitro Transcription yield (mg)
Give bare numbers, in mg.

Reference set (3 entries):
Nc1ncnc2c1nnn2[C@@H]1O[C@H](COP(=O)(O)OP(=O)(O)OP(=O)(O)O)C(O)C1O (stereo partly drawn)	0.0262
COC(=O)COc1cn([C@@H]2O[C@H](COP(=O)(O)OP(=O)(O)OP(=O)(O)O)C(O)C2O)c(=O)[nH]c1=O (stereo in doubt)	0.6348
O=c1[nH]c(=O)n([C@@H]2O[C@H](COP(=O)(O)OP(=O)(O)OP(=O)(O)O)C(O)C2O)cc1C(F)(F)F (stereo partly drawn)	0.3662

Please give Luc In Vitro Transcription yield for each item listed below.
1. Cn1c(N)nc2c(ncn2[C@@H]2O[C@H](COP(=O)(O)OP(=O)(O)OP(=O)(O)O)C(O)C2O)c1=O (stereo partly drawn)
2. CCn1cc([C@@H]2O[C@H](COP(=O)(O)OP(=O)(O)OP(=O)(O)O)C(O)C2O)c(=O)[nH]c1=O (stereo in doubt)

// result
1: 0.0059; 2: 0.6304

Please give Luc In Vitro Transcription yield for each item listed below.
1. Nc1nc(=O)n([C@@H]2O[C@H](COP(=O)(O)OP(=O)(O)OP(=O)(O)O)C(O)C2O)cc1Br (stereo in doubt)
2. Nc1nc(=O)n([C@@H]2O[C@H](COP(=O)(O)OP(=O)(O)OP(=O)(O)O)C(O)C2O)cc1C(F)(F)F (stereo in doubt)

// result
1: 0.5161; 2: 0.5097

Please give Luc In Vitro Transcription yield for each item listed below.
1. Nc1nc(=O)n([C@@H]2O[C@H](COP(=O)(O)OP(=O)(O)OP(=O)(O)O)C(O)C2O)cc1CO (stereo in doubt) [00901014005 (350), 5-Hydroxymethyl-CTP]
2. Nc1ccn([C@@H]2O[C@H](COP(=O)(O)OP(=O)(O)OP(=O)(O)O)C(O)C2O)c(=S)n1 (stereo partly drawn)
3. O=c1[nH]cc([C@@H]2O[C@H](COP(O)(=S)OP(=O)(O)OP(=O)(O)O)C(O)C2O)c(=O)[nH]1 (stereo in doubt)
4. COc1cn([C@@H]2O[C@H](COP(=O)(O)OP(=O)(O)OP(=O)(O)O)C(O)C2O)c(=O)[nH]c1=O (stereo in doubt)
5. NC/C=C/c1cn([C@@H]2O[C@H](COP(=O)(O)OP(=O)(O)OP(=O)(O)O)C(O)C2O)c(=O)[nH]c1=O (stereo in doubt)
6. O=c1[nH]c(=O)n([C@@H]2O[C@H](COP(=O)(O)OP(=O)(O)OP(=O)(O)O)C(O)C2O)cc1Br (stereo in doubt)
7. COC(=O)Cc1cn([C@@H]2O[C@H](COP(=O)(O)OP(=O)(O)OP(=O)(O)O)C(O)C2O)c(=O)[nH]c1=O (stereo in doubt)

// result
1: 0.4073; 2: 0.0073; 3: 0.6479; 4: 0.3817; 5: 0.3513; 6: 0.3352; 7: 0.8825

Please give Luc In Vitro Transcription yield for each item listed below.
1. NC/C=C/c1cn([C@@H]2O[C@H](COP(=O)(O)OP(=O)(O)OP(=O)(O)O)C(O)C2O)c(=O)nc1N (stereo in doubt)
2. CNCc1cn([C@@H]2O[C@H](COP(=O)(O)OP(=O)(O)OP(=O)(O)O)C(O)C2O)c(=O)[nH]c1=O (stereo partly drawn)
3. Cn1c(=N)ccn([C@@H]2O[C@H](COP(=O)(O)OP(=O)(O)OP(=O)(O)O)C(O)C2O)c1=O (stereo partly drawn)
4. Cn1cc([C@@H]2O[C@H](COP(O)(=S)OP(=O)(O)OP(=O)(O)O)C(O)C2O)c(=O)[nH]c1=O (stereo in doubt)
5. O=c1ccn([C@@H]2O[C@H](COP(=O)(O)OP(=O)(O)OP(=O)(O)O)C(O)C2O)c(=S)[nH]1 (stereo in doubt)
6. Nc1ncc2ncn([C@@H]3O[C@H](COP(=O)(O)OP(=O)(O)OP(=O)(O)O)C(O)C3O)c2n1 (stereo in doubt) [03601012004 (382), 2-Aminopurine-riboside TP]

// result
1. 0.3471
2. 0.2914
3. 0.0068
4. 0.6011
5. 0.2792
6. 0.0690

// query Enter reported Luc In Vitro Transcription yield observed with T7 RNA polymerase (Escherichia phage T7, UniProt P00573) for Cc1cn([C@@H]2O[C@H](COP(=O)(O)OP(=O)(O)OP(=O)(O)O)C(O)C2O)c(=S)[nH]c1=O (stereo in doubt)
// result 0.7580

###

Molecular target: UniProtKB P00573
Assay: In vitro transcription yields of modified mRNA
Assay type: biochemical
Settings: GCSF mRNA made with the modified NTP(s)
Procedure: The in vitro transcription reaction generates mRNA containing modified nucleotides or modified RNA. The input nucleotide triphosphate (NTP) mix is made in-house using natural and unnatural NTPs. […] The crude IVT mix may be stored at 4° C. overnight for cleanup the next day. […] Following the cleanup, the RNA is quantified using the NanoDrop and analyzed by agarose gel electrophoresis to confirm the RNA is the proper size and that no degradation of the RNA has occurred. […]
MEASUREMENT TYPE: GCSF In Vitro Transcription yield (mg)
Give bare numbers, in mg.

Reference set (4 entries):
O=c1[nH]c(=S)[nH]cc1[C@@H]1O[C@H](COP(=O)(O)OP(=O)(O)OP(=O)(O)O)C(O)C1O (stereo in doubt)	0.5207
Cn1c(=O)[nH]cc([C@@H]2O[C@H](COP(=O)(O)OP(=O)(O)OP(=O)(O)O)C(O)C2O)c1=O (some centres unmarked)	0.0120
Nc1nc(=O)n([C@@H]2O[C@H](COP(=O)(O)OP(=O)(O)OP(=O)(O)O)C(O)C2O)cc1Br (stereo in doubt)	0.3685
Nc1nc(=O)n([C@@H]2O[C@H](COP(=O)(O)OP(=O)(O)OP(=O)(O)O)C(O)C2O)cc1C(F)(F)F (stereo in doubt)	0.7710

# context switch: different molecule, same GCSF In Vitro Transcription yield
// query So what does the record say about GCSF In Vitro Transcription yield for Nc1nc(N)c2ncn([C@@H]3O[C@H](COP(=O)(O)OP(=O)(O)OP(=O)(O)O)C(O)C3O)c2n1 (some centres unmarked) ?
// result 0.1567

###

Biological target: T7 RNA polymerase (Escherichia phage T7)
Test: In vitro transcription yields of modified mRNA
Format: biochemical
Settings: GCSF mRNA made with the modified NTP(s)
MEASUREMENT TYPE: GCSF In Vitro Transcription yield (mg)
Give bare numbers, in mg.

Reference set (7 entries):
NC/C=C/c1cn([C@@H]2O[C@H](COP(=O)(O)OP(=O)(O)OP(=O)(O)O)C(O)C2O)c(=O)[nH]c1=O (stereo in doubt)	0.4206
O=c1ccn([C@@H]2O[C@H](COP(=O)(O)OP(=O)(O)OP(=O)(O)O)C(O)C2O)c(=S)[nH]1 (stereo in doubt)	0.3359
CNc1ccn([C@@H]2O[C@H](COP(=O)(O)OP(=O)(O)OP(=O)(O)O)C(O)C2O)c(=O)n1 (stereo in doubt)	0.9028
CCn1cc([C@@H]2O[C@H](COP(=O)(O)OP(=O)(O)OP(=O)(O)O)C(O)C2O)c(=O)[nH]c1=O (stereo in doubt)	0.5464
Nc1ncc2ncn([C@@H]3O[C@H](COP(=O)(O)OP(=O)(O)OP(=O)(O)O)C(O)C3O)c2n1 (stereo in doubt) [03601012004 (382), 2-Aminopurine-riboside TP]	0.2919
Cc1cn([C@@H]2O[C@H](COP(=O)(O)OP(=O)(O)OP(=O)(O)O)C(O)C2O)c(=S)[nH]c1=O (stereo in doubt)	0.4682
COC(=O)COc1cn([C@@H]2O[C@H](COP(=O)(O)OP(=O)(O)OP(=O)(O)O)C(O)C2O)c(=O)[nH]c1=O (stereo in doubt)	0.3836

# context switch: different compound, same GCSF In Vitro Transcription yield
// query So what does the record say about GCSF In Vitro Transcription yield for Cn1c(N)nc2c(ncn2[C@@H]2O[C@H](COP(=O)(O)OP(=O)(O)OP(=O)(O)O)C(O)C2O)c1=O (some centres unmarked) ?
// result 0.0050
